target.under.test: Cyclin-dependent kinase 3 (Homo sapiens, UniProt Q00526); further: in the data inactive means no Kd found up to 30 µM
Sequence (Q00526 whole entry): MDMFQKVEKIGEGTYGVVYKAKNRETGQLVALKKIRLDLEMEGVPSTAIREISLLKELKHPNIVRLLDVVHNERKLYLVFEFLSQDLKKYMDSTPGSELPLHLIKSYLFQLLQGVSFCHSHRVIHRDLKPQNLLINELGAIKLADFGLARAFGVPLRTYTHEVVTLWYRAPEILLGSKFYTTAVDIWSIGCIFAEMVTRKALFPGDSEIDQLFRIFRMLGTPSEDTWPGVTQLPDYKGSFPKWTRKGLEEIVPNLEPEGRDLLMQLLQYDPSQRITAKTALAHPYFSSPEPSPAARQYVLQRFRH
Calls of active or inactive are those of the source.
Respond using exactly one of the listed classes: true (active), false (inactive)

Reference set, count: 2
C[C@]1(O)C[C@@H](c2nc(-c3ccc4ccc(-c5ccccc5)nc4c3)c3c(N)nccn32)C1	false
S=C(NCc1ccc2c(c1)OCO2)N1CCN(c2ncnc3c2oc2ccccc23)CC1	false

Hi, sorry to bother you, what did the test record for NC(=O)c1ccc(N(C(N)=O)c2c(F)cccc2F)nc1-c1ccc(F)cc1F ?
false

Same question for COc1cc2nccc(Oc3ccc(NC(=O)C4(C(=O)Nc5ccc(F)cc5)CC4)cc3)c2cc1OC [CABOZANTINIB] please.
false

Same question for Cn1c(=O)n(-c2ccc(C(C)(C)C#N)cc2)c2c3cc(-c4cnc5ccccc5c4)ccc3ncc21 please.
false

Same question for CC(C)CC(=O)Nc1[nH]nc2c1CN(C(=O)C1CCN(C)CC1)C2(C)C please.
true

Same question for Cc1c(Cn2c(C)nc3c(C(=O)O)cc(N4CCOCC4)cc32)cccc1C(F)(F)F please.
false

Same question for COc1cccc(Nc2ncnn3ccc(CN4CC[C@@H](N)[C@H](O)C4)c23)c1 please.
false
